- Assay System: Nav1.5 (sodium channel protein type 5 subunit alpha) (Homo sapiens, UniProt Q14524)
- Sequence (Q14524 whole entry): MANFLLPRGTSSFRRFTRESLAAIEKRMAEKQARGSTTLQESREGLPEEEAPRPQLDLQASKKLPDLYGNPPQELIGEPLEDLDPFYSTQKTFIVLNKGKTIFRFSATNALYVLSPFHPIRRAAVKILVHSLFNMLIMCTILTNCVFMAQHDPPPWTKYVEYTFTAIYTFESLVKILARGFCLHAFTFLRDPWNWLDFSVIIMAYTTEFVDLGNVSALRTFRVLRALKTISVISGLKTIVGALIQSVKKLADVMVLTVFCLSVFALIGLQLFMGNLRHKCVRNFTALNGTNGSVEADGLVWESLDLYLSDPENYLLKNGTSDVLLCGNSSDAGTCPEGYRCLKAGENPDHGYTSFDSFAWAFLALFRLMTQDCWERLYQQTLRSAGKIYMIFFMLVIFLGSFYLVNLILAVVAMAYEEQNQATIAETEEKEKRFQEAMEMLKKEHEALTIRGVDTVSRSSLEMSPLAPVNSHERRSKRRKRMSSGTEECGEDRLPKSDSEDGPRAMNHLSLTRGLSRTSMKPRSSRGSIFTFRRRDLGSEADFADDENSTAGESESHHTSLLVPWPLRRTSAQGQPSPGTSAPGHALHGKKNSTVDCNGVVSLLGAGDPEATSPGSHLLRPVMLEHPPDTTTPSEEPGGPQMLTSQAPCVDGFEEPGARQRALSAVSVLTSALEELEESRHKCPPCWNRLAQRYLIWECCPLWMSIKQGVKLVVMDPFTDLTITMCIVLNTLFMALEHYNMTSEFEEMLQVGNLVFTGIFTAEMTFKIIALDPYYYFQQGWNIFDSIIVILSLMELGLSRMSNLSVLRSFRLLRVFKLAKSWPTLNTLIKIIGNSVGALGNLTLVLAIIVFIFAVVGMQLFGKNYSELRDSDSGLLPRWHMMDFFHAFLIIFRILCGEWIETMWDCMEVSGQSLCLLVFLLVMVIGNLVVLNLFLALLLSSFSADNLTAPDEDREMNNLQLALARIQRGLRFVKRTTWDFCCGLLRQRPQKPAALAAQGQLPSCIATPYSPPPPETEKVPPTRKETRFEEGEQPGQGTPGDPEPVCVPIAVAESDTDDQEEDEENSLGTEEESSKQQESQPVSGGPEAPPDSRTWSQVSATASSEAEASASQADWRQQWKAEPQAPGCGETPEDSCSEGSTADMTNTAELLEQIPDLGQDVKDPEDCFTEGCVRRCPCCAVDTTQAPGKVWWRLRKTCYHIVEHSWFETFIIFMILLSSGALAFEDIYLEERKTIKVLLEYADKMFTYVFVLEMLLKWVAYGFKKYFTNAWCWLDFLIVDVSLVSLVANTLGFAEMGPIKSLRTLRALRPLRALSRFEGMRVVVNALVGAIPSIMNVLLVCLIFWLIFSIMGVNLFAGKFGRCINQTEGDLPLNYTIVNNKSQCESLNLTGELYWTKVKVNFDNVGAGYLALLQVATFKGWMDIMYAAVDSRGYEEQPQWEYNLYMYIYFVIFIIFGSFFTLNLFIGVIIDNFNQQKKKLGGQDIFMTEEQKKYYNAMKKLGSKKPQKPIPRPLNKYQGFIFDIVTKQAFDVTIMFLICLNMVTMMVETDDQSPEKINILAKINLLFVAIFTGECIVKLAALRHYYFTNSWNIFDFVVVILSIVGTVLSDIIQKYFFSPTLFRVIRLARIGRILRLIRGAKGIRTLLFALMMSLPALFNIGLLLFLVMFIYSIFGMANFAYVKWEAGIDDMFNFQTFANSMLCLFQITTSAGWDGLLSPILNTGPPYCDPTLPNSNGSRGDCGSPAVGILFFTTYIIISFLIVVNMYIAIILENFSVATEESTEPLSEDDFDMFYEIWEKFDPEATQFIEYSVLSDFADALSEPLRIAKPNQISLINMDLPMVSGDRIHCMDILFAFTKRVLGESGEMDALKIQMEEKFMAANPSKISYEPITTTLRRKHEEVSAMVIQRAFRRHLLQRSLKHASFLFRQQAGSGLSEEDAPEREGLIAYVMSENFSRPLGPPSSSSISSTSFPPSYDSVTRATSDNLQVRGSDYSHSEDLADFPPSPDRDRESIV
- Assay: Inhibition of human Nav1.5 expressed in HEK293 cells at 1 uM by whole cell patch clamp assay
- Assay type: cell-based
- Protocol Conditions: HEK293 cells that express human Nav1.5
For each of the compounds below, state its inhibition at 1 µM.
Answer format: value, then unit.

Request: Report inhibition at 1 µM for Cc1noc(Cn2nc3ccc(-c4ccc(Oc5ccc(F)cc5)cc4)cn3c2=O)n1 please.
Result: 71.2%

Request: Report inhibition at 1 µM for COc1ccccc1OCC(Cn1nc2ccc(-c3ccc(OC(F)(F)F)cc3)cn2c1=O)OC (centres undefined) please.
Result: 55%

Request: Report inhibition at 1 µM for Cc1noc(Cn2nc3ccc(-c4ccc(Oc5ccc(Cl)cc5)cc4)cn3c2=O)n1 please.
Result: 55.8%

Request: Report inhibition at 1 µM for Cc1nc(Cn2nc3ccc(-c4ccc(Oc5ccc(Cl)cc5)cc4)cn3c2=O)no1 please.
Result: 68.4%
